Entry source: patent US20210324028A1

# TARGET OR SYSTEM: T1, human IL-15Rα (human, UniProt Q13261 31-205, limits assumed)
# T1 construct: also called hIL-15Rα; IL-15 receptor alpha
# T1 sequence (Q13261 31-205 limits assumed): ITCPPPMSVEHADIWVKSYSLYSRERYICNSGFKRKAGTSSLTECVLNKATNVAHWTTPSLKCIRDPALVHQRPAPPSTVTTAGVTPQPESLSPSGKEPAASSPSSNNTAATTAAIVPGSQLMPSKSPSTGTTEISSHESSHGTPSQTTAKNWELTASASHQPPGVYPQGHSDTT
# PROTOCOL NOTES: SPR, steady state
REPORTED METRIC: Kd (nM)

hIL-15 V49R/I68Q (ligand) NWVNVISDLKKIEDLIQSMHIDATLYTESDVHPSCKVTAMKCFLLELQRISLESGDASIHDTVENLIQLANNSLSSNGNVTESGCKECEELEEKNIKEFLQSFVHIVQMFINTGGGGSGHHHHHHHHGGGLNDIFEAQKIEWHE : 132
hIL-15 V49R/I68T (ligand) NWVNVISDLKKIEDLIQSMHIDATLYTESDVHPSCKVTAMKCFLLELQRISLESGDASIHDTVENLITLANNSLSSNGNVTESGCKECEELEEKNIKEFLQSFVHIVQMFINTGGGGSGHHHHHHHHGGGLNDIFEAQKIEWHE : 76.3
